# Tested on: 276233-004-R-J1-PDC complex spheroid viability;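 further: spheroids exposed to drugs for seven days; 100% = DMSO vehicle control viability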
# Test protocol: Anticancer human tumor 276233-004-R-J1-PDC patient-derived colon adenocarcinoma cell line growth inhibition [GQUAD]
# Run parameters: second compound 0.0316 µM; first compound 0.1 µM; stronger effect = lower value
Parameter: viability, T/C

Compound	viability, T/C
CC1COCCN1c1cc(-c2ccnn2C)c2ccnc(-c3ccn[nH]3)c2n1 (configuration not stated) + CN(C)c1ccc(Nc2c3ccc(NC(=O)CCN4CCCC4)cc3nc3cc(NC(=O)CCN4CCCC4)ccc23)cc1	77.8%

Next compound, viability, T/C to be filled in.
Find the measured viability, T/C: item CC(=O)O[C@H]1C(=O)[C@@]2(C)[C@H]([C@H](OC(=O)c3ccccc3)[C@]3(O)C[C@H](OC(=O)[C@H](O)[C@@H](NC(=O)c4ccccc4)c4ccccc4)C(C)=C1C3(C)C)[C@]1(OC(C)=O)CO[C@@H]1C[C@@H]2O + Cc1cnc(CNC(=O)c2c(=O)c3ccc(N4CCCN(C)CC4)nc3n3c2sc2ccccc23)cn1 , target or system 276233-004-R-J1-PDC complex spheroid viability.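 Further: spheroids exposed to drugs for seven days; 100% = DMSO vehicle control viability.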
80.5%
